settings: siRNA; note: test system not given here
HELM strings list units from the 5' end as sugar, base in round brackets, then linkage (d deoxyribose, r ribose, m 2'-O-methyl, p phosphodiester). Strings are as the collection lists them, not checked against the first reports. ss, as = sense and antisense strand; [lna] = locked nucleic acid (LNA); [fl2r] = 2'-fluoro
Label True when target mRNA knockdown is strictly below 80%; at or above that, label False.

Solved cases below.
SUBSTANCE	CLASS_NAME
RNA1{r(A)p.r(G)p.r(A)p.r(A)p.r(G)p.m(U)p.r(A)p.r(C)p.m(C)p.r(A)p.r(G)p.r(G)p.r(A)p.r(G)p.m(G)p.r(C)p.r(G)p.r(U)p.r(U)p.r(T)p.r(T)}|RNA2{r(A)p.r(A)p.r(C)p.r(G)p.r(C)p.r(C)p.r(U)p.r(C)p.r(C)p.m(U)p.r(G)p.r(G)p.m(U)p.r(A)p.r(C)p.r(U)p.r(U)p.r(C)p.r(U)p.r(T)p.r(T)}$$$RNA1{StrandType:ss}|RNA2{StrandType:as}$	True
RNA1{r(G)p.r(A)p.r(C)p.r(G)p.r(U)p.r(A)p.r(A)p.r(A)p.r(C)p.r(G)p.r(G)p.r(C)p.r(C)p.r(A)p.r(C)p.r(A)p.r(A)p.r(G)p.r(U)p.[lna](T)p.[lna](C)}|RNA2{r(A)p.r(C)p.r(U)p.r(U)p.r(G)p.r(U)p.r(G)p.r(G)p.r(C)p.r(C)p.r(G)p.r(U)p.r(U)p.r(U)p.r(A)p.r(C)p.r(G)p.r(U)p.r(C)p.r(G)p.r(C)}$$$RNA1{StrandType:ss}|RNA2{StrandType:as}$	False

(Q) Here's an entry: RNA1{r(G)p.r(G)p.r(C)p.m(C)p.r(A)p.r(A)p.r(A)p.r(G)p.m(U)p.r(A)p.r(A)p.r(U)p.r(C)p.r(G)p.m(U)p.r(G)p.r(G)p.r(U)p.r(U)p.r(T)p.r(T)}|RNA2{r(A)p.r(A)p.r(C)p.m(C)p.r(A)p.r(C)p.r(G)p.r(A)p.r(U)p.m(U)p.r(A)p.r(C)p.r(U)p.r(U)p.m(U)p.r(G)p.r(G)p.r(C)p.r(C)p.r(T)p.r(T)}$$$RNA1{StrandType:ss}|RNA2{StrandType:as}$ . Is its target mRNA knockdown below 80%?
(A) False

(Q) Just wondering, is target mRNA knockdown of RNA1{r(A)p.r(G)p.r(A)p.r(G)p.r(A)p.r(G)p.r(G)p.[fl2r](U)p.r(G)p.r(G)p.r(A)p.r(G)p.r(G)p.[fl2r](U)p.r(A)p.r(U)p.r(C)p.[fl2r](U)p.r(C)p.r(T)p.r(T)}|RNA2{r(G)p.r(A)p.r(G)p.r(A)p.[fl2r](U)p.r(A)p.r(C)p.r(C)p.r(U)p.r(C)p.[fl2r](C)p.[fl2r](A)p.r(C)p.r(C)p.r(U)p.r(C)p.r(U)p.r(C)p.r(U)p.r(T)p.r(T)}$$$RNA1{StrandType:ss}|RNA2{StrandType:as}$ below 80%?
(A) False
